Property: MIC; scope: individual compounds
System: Candida albicans
Assay: Antifungal activity against Candida albicans KCCM 50235 after 1 day
Format: functional
Details: KCCM 50235, 24 h
Kindly provide the numeric value in µg/mL only, without the unit symbol.

Worked examples follow.
N#Cc1c2c(n(-c3ccccc3)c1N)C(=O)c1ccccc1C2=O; 100
CCOC(=O)c1c2c(n(-c3ccc(I)cc3)c1N)C(=O)c1ncccc1C2=O; 25

Then this compound:
Can you share its MIC? I mean this compound: "CCOC(=O)c1c2c(n(-c3ccc(O)cc3)c1N)C(=O)c1ncccc1C2=O" 3.2
